target: adrenergic, serotonergic receptors
experimental_protocol: Receptor bonding (adrenergic, serotonergic)
Type: binding
assay_readout: IC50

Which IC50 value is on record for NCC1CC(=O)N(Cc2ccccc2)C1 (stereo not shown) ?
> 10 µM

----------
experimental_protocol: LD50, mouse, oral route
cond: in vivo, by oral route
assay_readout: LD50

Report LD50 for NCC1CC(=O)N(Cc2ccccc2)C1 (stereo not shown) please.
> 2000 mg/kg
